Biological target: HLA-A*01:01 (human)
Experiment: UV peptide exchange; HLA class I ELISA
Conditions: remark: other sources report otherwise
exchange rate with Pos vs 2%: less than gives yes (1); not less than gives no (0).

Worked examples, 7 binders total:
IVWWCPMSR (here or on the partner: biotinylated heavy chain) [P98 9-mer … (TP53 R213D frameshift)]; no (0)
RAKCKFSIL (here or on the partner: biotinylated heavy chain) [P56 9-mer … (SPOP F102C)]; no (0)
CYLGRQKRF (here or on the partner: biotinylated heavy chain) [P61 9-mer … (FOXA1.p.R261G)]; yes (1)
FLFLLLPLS (here or on the partner: biotinylated heavy chain) [P87 9-mer … (AR-Intron)]; yes (1)
YLRRQKRLK (here or on the partner: biotinylated heavy chain) [P60 9-mer … (FOXA1.p.F266L)]; no (0)
QLIAMDSAI (here or on the partner: biotinylated heavy chain) [P22 9-mer … (SLC45A3-ELK4 fusion)]; no (0)
YCMAAPMGL (here or on the partner: biotinylated heavy chain) [P76 9-mer … (AR-V3)]; yes (1)

Now look at this entry.
(Q) Could you please tell me whether exchange rate with Pos recorded for HVPKILSGK (here or on the partner: biotinylated heavy chain) [P58 9-mer … (AR Q903H)] is less than 2%?
(A) no (0)
